# Test system: hepatocytes
# assay_explanation: Hepatocyte stability assay (human)
# Assay type: in vitro ADME
# condition_description: 10 μM compound, 60 min
measured_metric: Clint (μL min^−1 10^−6 cells)

Completed entries (count: 4):
C=C(CC(=O)OC1(c2ccc(C(F)(F)F)cc2)CSC1)C(=O)O	12
C=C(CC(=O)OC1(c2ccc(C(F)(F)F)cc2)CC(F)(F)C1)C(=O)O	11
C=C(CC(=O)OC1(c2ccc(C(F)(F)F)cc2)CCCC1)C(=O)O	20
C=C(C(=O)O)C(C)(C)C(=O)OC1(c2ccc(C(F)(F)F)cc2)CCC1	41

A = C=C(CC(=O)OC1(c2ccc(SC(F)(F)F)cc2)CCC1)C(=O)O
B = C/C(=C\C(=O)OC1(c2ccc(C(F)(F)F)cc2)CCC1)C(=O)O
C = C=C(CC(=O)O[C@@H](C)c1ccc(C(F)(F)F)cc1)C(=O)O
Exercise: # rank by Clint, ascending (min first) Would you mind listing the labels in the order asked for?
Key: C, A, B
(C: 10 μL min^−1 10^−6 cells, A: 15 μL min^−1 10^−6 cells, B: 31 μL min^−1 10^−6 cells)

---

# System: hepatocytes
# assay_explanation: Hepatocyte stability assay (mouse)
# Format: in vitro ADME
# condition_description: 10 μM compound, 60 min
measured_metric: Clint (μL min^−1 10^−6 cells)

Completed entries (count: 5):
C=C(C(=O)O)C(C)(C)C(=O)OC1(c2ccc(C(F)(F)F)cc2)CCC1 [Example 30]	104
C=C(CC(=O)OC(C)(C)c1ccc(C(F)(F)F)cn1)C(=O)O [Example 57]	10
C=C(CC(=O)OC1(c2ccc(Br)cc2)COC1)C(=O)O [Example 23]	12
C=C(CC(=O)OC1(c2ccc(C(F)(F)F)cc2)CC2(CC2)C1)C(=O)O [Example 61]	21
C=C(CC(=O)OC1(c2ccc(C(F)F)cc2)CCC1)C(=O)O [Example 20]	13

P = C#CC(OC(=O)CC(=C)C(=O)O)c1ccc(C(F)(F)F)cc1 (single isomer, unassigned) [Example 37]
Q = C=C(CC(=O)O[C@]1(c2ccc(C(F)(F)F)cc2)C[C@H](C#N)C1)C(=O)O [Example 41]
Exercise: Given P and given Q , which shows the smaller recorded Clint? Lab note: record the label of whichever item you select.
Key: Q
(Q: 8 μL min^−1 10^−6 cells, P: 34 μL min^−1 10^−6 cells)

1 = C=C(CC(=O)OC1(c2ccc(C(F)(F)F)nc2)CCC1)C(=O)O [Example 22]
2 = C=C(CC(=O)OC1(c2ccc(SC(F)(F)F)cc2)CCC1)C(=O)O [Example 9]
3 = C#CC(OC(=O)CC(=C)C(=O)O)c1ccc(C(F)(F)F)cc1 (single isomer, unassigned) [Example 38]
4 = C=C(CC(=O)OC1(c2ccc(C(C)(F)F)cc2)CCC1)C(=O)O [Example 19]
Exercise: List items by Clint in falling order. Would you mind listing the labels in the order asked for?
Key: 2, 4, 3, 1
(2: 44 μL min^−1 10^−6 cells, 4: 23 μL min^−1 10^−6 cells, 3: 13 μL min^−1 10^−6 cells, 1: 4 μL min^−1 10^−6 cells)

a = C=C(CC(=O)OC1(c2ccc(S(F)(F)(F)(F)F)cc2)CCC1)C(=O)O [Example 18]
b = C=C(CC(=O)OC1(c2ccc(C(F)(F)F)cc2)COC1)C(=O)O [Example 24]
c = C=C(CC(=O)OC1(c2ccc(C(F)(F)F)s2)CCC1)C(=O)O [Example 32]
Exercise: List items by Clint in falling order. Would you mind listing the labels in the order asked for?
Key: a, c, b
(a: 50 μL min^−1 10^−6 cells, c: 21 μL min^−1 10^−6 cells, b: 11 μL min^−1 10^−6 cells)

A = C=C(CC(=O)OCc1ccc(C(F)(F)F)cc1)C(=O)O [Example 13]
B = C=C(CC(=O)OC1(c2ccc(C(F)(F)F)cc2)CCC1)C(=O)O [Example 1]
Exercise: Given A and given B , which shows the smaller recorded Clint? Lab note: record the label of whichever item you select.
Key: B
